Just for reference, ChEMBL document CHEMBL1149681 is where these values come from.

System: MDA-MB-231
Assay: Antitumor activity against human MDA-MB-231 cells by methylene blue staining method
Format: functional, cell-based
observation-type: IC50 (µM)

structure-string	system-name	IC50, µM
COc1ccc(C(=O)O[C@H]2[C@H](O[C@H]3[C@H](OC(C)=O)[C@@H](O[C@H]4C[C@H]5[C@@H]6CCc7cc(O)ccc7[C@H]6CC[C@]5(C)[C@@]4(O)[C@H](C)C(=O)CCC(C)C)OC[C@H]3O)OC[C@@H](O)[C@@H]2O)cc1	MDA-MB-231	0.68

(P) COc1cccc2c1C(=O)c1c(O)c3c(c(O)c1C2=O)C[C@@](O)(C(=O)CO)C[C@@H]3O[C@H]1C[C@H](N)[C@H](O)[C@H](C)O1
(Q) COc1ccc(C(=O)O[C@H]2[C@H](O[C@H]3[C@H](OC(C)=O)[C@@H](O[C@H]4C[C@H]5[C@@H]6CCc7cc(O)ccc7[C@H]6CC[C@]5(C)[C@@]4(O)[C@H](C)C(=O)CCC(C)C)OC[C@H]3F)OC[C@@H](O)[C@@H]2O)cc1
(R) COc1ccc(C(=O)O[C@H]2[C@H](O[C@@H]3CCO[C@H](O[C@H]4C[C@H]5[C@@H]6CCc7cc(O)ccc7[C@H]6CC[C@]5(C)[C@@]4(O)[C@H](C)C(=O)CCC(C)C)[C@H]3OC(C)=O)OC[C@@H](O)[C@@H]2O)cc1
(S) COc1ccc(C(=O)O[C@@H]2CCO[C@H]2O[C@H]2[C@H](OC(C)=O)[C@@H](O[C@H]3C[C@H]4[C@@H]5CCc6cc(O)ccc6[C@H]5CC[C@]4(C)[C@@]3(O)[C@H](C)C(=O)CCC(C)C)OC[C@H]2O)cc1
(T) CC(=O)O[C@@H]1[C@@H](O[C@H]2C[C@H]3[C@@H]4CCc5cc(O)ccc5[C@H]4CC[C@]3(C)[C@@]2(O)[C@H](C)C(=O)CCC(C)C)OC[C@@H](O)[C@H]1O[C@@H]1OC[C@@H](O)[C@H](O)[C@H]1O
// query Ranking field: IC50; order: falling. Reply format: the labels, ordered as requested.
// result S, R, T, Q, P
(S: 18.2 µM, R: 10.9 µM, T: 6.94 µM, Q: 0.85 µM, P: 0.1 µM)
